The reported numbers originate from PubChem BioAssay (NCI).

- System: HS 578T breast
- assayInfo: NCI-60 one-dose screen, 48 h (100 = growth as untreated, 0 = no growth, -100 = all killed)
- experimentalContext: 10 µM unless noted
Compounds without any hit were thinned out: in the full panel of roughly 83,000, 20% have a hit.
measureName: growth (%)

compound=O=C1CCc2c(sc3[nH]c(=S)n(Cc4ccc(Cl)cc4)c(=O)c23)C1 valuereported=5.06
compound=COc1ccc(/C=C2/C(=O)N=C3N2NC(c2ccccc2)=CN3c2ccccc2)cc1 valuereported=95.4
compound=CCOC(=O)c1c(-c2ccc(OC)cc2)c(C#N)c2c(C#N)c(N)nn2c1N valuereported=27.7
compound=CC(=O)c1c(C)nc(SCC(=O)Nc2ccc(Cl)cc2)n1-c1ccc(Cl)cc1 valuereported=79.4
compound=CCN(c1cc(-c2ccc(CN3CCC(/C=C/S(=O)(=O)c4ccccc4)CC3)cc2)cc(C(=O)NCc2c(C)cc(C)[nH]c2=O)c1C)C1CCOCC1 valuereported=62.2
compound=COC(=O)/C=C1/SC(=Nc2ccc([N+](=O)[O-])cc2)N(CCc2c[nH]c3ccccc23)C1=O valuereported=63.5
compound=COc1ccc(/C(C)=C(\c2ccc(OCCN3CCOCC3)cc2)c2ccc(OC(=O)C3CCCCC3)cc2)cc1 valuereported=110
compound=CS(=O)(=O)Nc1cc(-c2ccc3ncnc(Nc4ccc(F)c(Cl)c4)c3c2)cnc1Cl valuereported=-11.5
compound="CC1(Cc2ccccc2)CC2=C(C(=O)O1)C(c1ccccc1)NC(=O)N2 (stereo unspecified)" valuereported=109
compound="COc1c(O)c(O)cc2c3c(oc12)CC(c1ccc2c(c1)OCO2)CC3=O (stereo unspecified)" valuereported=93.8
compound=CCOC(=O)C(=CCC(C)C)C(=O)OCC valuereported=98.6
compound=CCc1c2c(nc3ccc(OCc4ccc(B5OC(C)(C)C(C)(C)O5)cc4)cc13)-c1cc3c(c(=O)n1C2)COC(=O)[C@]3(O)CC valuereported=38.4
compound="O=C1OCC2=C1C(c1cccc(C(F)(F)F)c1)c1cc3c(cc1N2CCO)CCC3 (stereo unspecified)" valuereported=28
compound=N=c1c2c(-c3ccccc3)c(-c3ccccc3)oc2ncn1NC(=O)c1cccnc1 valuereported=103
compound=COc1ccc(Cl)cc1Nc1nc(C(F)(F)F)ccc1C(=O)N/N=C/c1ccc(N(C)C)cc1 valuereported=101
compound=C[C@@H]1O[C@@H](O[C@H]2[C@@H](OC(=O)[C@]34CCC(C)(C)C[C@H]3C3=CC[C@@H]5[C@@]6(C)C[C@H](O)[C@H](O[C@@H]7O[C@H](CO)[C@@H](O)[C@H](O)[C@H]7O)[C@@](C)(CO)[C@@H]6CC[C@@]5(C)[C@]3(C)C[C@H]4O)OC[C@@H](O)[C@@H]2O)[C@H](O)[C@H](O[C@@H]2OC[C@@H](O)[C@H](O[C@@H]3OC[C@](O)(CO)[C@H]3O[C@@H]3OC[C@@H](O)[C@H](O)[C@H]3O)[C@H]2O)[C@H]1O[C@@H]1OC[C@](O)(CO)[C@H]1O valuereported=97.9
